- Procedure text: physchem
- Condition details: Solubility
Attribute measured: solubility

Give its solubility value. Item: CCCC1O[C@@H]2C[C@H]3[C@@H]4C[C@H](F)C5=CC(=O)C=C[C@]5(C)[C@@]4(F)[C@@H](O)C[C@]3(C)[C@]2(C(=O)COc2ccc(NC(=O)OCc3ccc(NC(=O)[C@H](CCCNC(N)=O)NC(=O)[C@@H](NC(=O)CCOCCOCCOCCOCCNC(=O)CCC(=O)N4Cc5ccccc5C#Cc5ccccc54)C(C)C)cc3)cc2)O1 (stereo partly shown) [10c] < 10 µg/mL

###

- Experimental target: Human liver Cathepsin B (Homo sapiens, UniProt P07858)
- Procedure text: Cathepsin B cleavage assay of linker-payloads
- Condition details: Table 1D
Attribute measured: CapB cleavage rate (%) at 4 hrs
Give bare numbers, in %.

Compound	Unit string	Value
CCCC1O[C@@H]2C[C@H]3[C@@H]4C[C@H](F)C5=CC(=O)C=C[C@]5(C)[C@@]4(F)[C@@H](O)C[C@]3(C)[C@]2(C(=O)COc2ccc(NC(=O)[C@H](C)NC(=O)[C@@H](NC(=O)[C@@H](CCCCNC(=O)COC3CCCCCc4c3nnn4CCOCCOCCOCCOCCC(=O)NCCS(=O)(=O)O)NC(=O)CCOCCOCCOCCOCCNC(=O)CCC(=O)N3Cc4ccccc4C#Cc4ccccc43)C(C)C)cc2)O1 (some centres unmarked) [1j]	%	30.8

Shift focus to the following entry.
Give its CapB cleavage rate (%) at 4 hrs value. Item: CC(C)[C@H](NC(=O)[C@@H](CCCCNC(=O)COC1CCCCCc2c1nnn2CCOCCOCCOCCOCCC(=O)NCCS(=O)(=O)O)NC(=O)CCOCCOCCOCCOCCNC(=O)CCC(=O)N1Cc2ccccc2C#Cc2ccccc21)C(=O)N[C@@H](CCCNC(N)=O)C(=O)Nc1ccc(COC(=O)N[C@@H](CO)C(=O)Nc2ccc3c(c2)[C@@]2(C)CCC[C@](C)(C(=O)NC(=O)[C@@]4(C)CCC[C@]5(C)c6cc(O)ccc6CC[C@@H]45)[C@@H]2CC3)cc1 (some centres unmarked) [1q] 30.4
